Measured Kd, listed per entry for reference.
target system: T1, biotinylated recombinant human trimeric ARG2 enzyme (Avi-huARG2-His10) (human, UniProt P78540 23-354, biotinylated)
T1 construct: also called avi-Arg2-His10; bio-ARG2
T1 chain: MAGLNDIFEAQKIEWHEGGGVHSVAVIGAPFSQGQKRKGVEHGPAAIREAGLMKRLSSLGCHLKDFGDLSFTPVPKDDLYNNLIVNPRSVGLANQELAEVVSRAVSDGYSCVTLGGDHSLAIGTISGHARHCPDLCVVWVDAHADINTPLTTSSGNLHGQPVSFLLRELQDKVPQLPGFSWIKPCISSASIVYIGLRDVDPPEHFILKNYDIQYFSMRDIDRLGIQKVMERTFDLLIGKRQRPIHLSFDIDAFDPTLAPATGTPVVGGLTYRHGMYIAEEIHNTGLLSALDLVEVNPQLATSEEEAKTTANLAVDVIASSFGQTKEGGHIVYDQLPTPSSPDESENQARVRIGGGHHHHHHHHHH
protocol summary: BLI (OctetRED), biotinylated ARG2 on streptavidin, Fab as analyte
# output: bare number, implied unit nM

Quick one: Kd of C0021032 Fab (Fab, V domains shown, Human Fab) VH: EVQLLESGGGLVQPGGSLRLSCAASGFTFSSYAMSWVRQAPGKGLEWVSAYGYGIGSTYYADSVKGRFTISRDNSKNTLYLQMNSLRAEDTAVYYCARLRADLGLYMDLWGRGTLVTVSS VL: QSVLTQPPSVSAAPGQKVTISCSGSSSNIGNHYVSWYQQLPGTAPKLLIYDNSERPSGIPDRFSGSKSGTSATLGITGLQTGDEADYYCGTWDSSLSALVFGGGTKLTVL ?
5.33

Which Kd is reported for this binder? C0021022 Fab (Fab, V domains shown, Human Fab) VH: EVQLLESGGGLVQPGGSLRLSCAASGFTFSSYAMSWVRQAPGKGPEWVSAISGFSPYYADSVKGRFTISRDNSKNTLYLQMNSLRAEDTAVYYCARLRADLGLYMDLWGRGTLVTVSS VL: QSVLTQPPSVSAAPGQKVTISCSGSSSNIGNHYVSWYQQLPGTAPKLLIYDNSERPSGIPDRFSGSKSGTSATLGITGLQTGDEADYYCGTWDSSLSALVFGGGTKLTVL
2.73

Any idea what Kd was measured for C0021118 Fab (Fab, V domains shown, Human Fab) VH: EVQLLESGGGLVQPGGSLRLSCAASGFTFSSYAMSWVRQAPGKGLEWVSASLTNPGSTYYADSVKGRFTISRDNSKNTLYLQMNSLRAEDTAVYYCARLRADLGLYMDLWGRGTLVTVSS VL: QSVLTQPPSVSAAPGQKVTISCSGSSSNIGNHYVSWYQQLPGTAPKLLIYDNSERPSGIPDRFSGSKSGTSATLGITGLQTGDEADYYCATYDTNLSALVFGGGTKLTVL ?
8.23

Given the entry C0021097 Fab (Fab, V domains shown, Human Fab) VH: EVQLLESGGGLVQPGGSLRLSCAASGFTFSSYAMSWVRQAPGKGLEWVSAISYHPGSTYYADSVKGRFTISRDNSKNTLYLQMNSLRAEDTAVYYCARLRADLGLYMDLWGRGTLVTVSS VL: QSVLTQPPSVSAAPGQKVTISCSGSSSNIGNHYVSWYQQLPGTAPKLLIYNTFARPSGIPDRFSGSKSGTSATLGITGLQTGDEADYYCGTWDSSLSALVFGGGTKLTVL , report its measured Kd.
4.95
